- MEASUREMENT_TARGET: T1, recombinant human Trop-2-his protein (ACCESSION NO.: NP_002344.2, AA 1-274) (human, UniProt P09758 27-274)
- T1 construct: range 27-274; also called recombinant human Trop-2 protein; recombinant human Trop-2 extracellular domain; not shown: his tag
- T1 sequence (looked up): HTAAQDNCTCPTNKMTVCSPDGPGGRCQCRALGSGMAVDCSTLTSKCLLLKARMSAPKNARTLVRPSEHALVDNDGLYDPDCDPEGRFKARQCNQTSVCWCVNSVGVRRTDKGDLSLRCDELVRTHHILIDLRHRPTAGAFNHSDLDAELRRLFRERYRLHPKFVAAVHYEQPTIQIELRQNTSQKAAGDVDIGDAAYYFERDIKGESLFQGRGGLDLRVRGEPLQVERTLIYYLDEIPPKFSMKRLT
- PROTOCOL_SUMMARY: BLI, antibody on AHC sensor, Trop-2-his 60 nM
PROPERTY_NAME: pKd
On this scale, pKd is minus log10 of a concentration expressed in M (mol/L).

Prompt: State the recorded pKd for this entry: h23-12-38 (antibody, human IgG1, kappa, V domains shown) VH: QVQLVQSGAEVKKPGASVKVSCKASGYTFTSYWMHWVRQAPGQGLEWMGEITPSDGYTSYNQKFKGRVTITRDTSTSTAYMELSSLRSEDTAVYYCARGHGNYVSFDYWGQGTLVTVSS VL: DIQMTQSPSSLSASVGDRVTITCRASQDISNYLNWYQQKPGKAPKLLIYYTSRLHSGVPSRFSGSGSGTDFTLTISSLQPEDFATYFCQQYYTLPPYTFGQGTKLEIKR
Response: 8.10

Prompt: Tell me the measured pKd of h23-12-42 (antibody, human IgG1, kappa, V domains shown) VH: QVQLVQSGAEVKKPGASVKVSCKASGYTFTSYWMHWVRQAPGQGLEWMGEITPSDNYTSYNQKFKGRVTITRDTSTSTAYMELSSLRSEDTAVYYCARGQGNYVSFDYWGQGTLVTVSS VL: DIQMTQSPSSLSASVGDRVTITCRASQDISNYLNWYQQKPGKAPKLLIYYTSRLHSGVPSRFSGSGSGTDFTLTISSLQPEDFATYFCQQYYTLPPYTFGQGTKLEIKR , please.
Response: 8.51

Prompt: Return reported pKd; argument: h23-12-47 (antibody, human IgG1, kappa, V domains shown) VH: QVQLVQSGAEVKKPGASVKVSCKASGYTFTSYWMHWVRQAPGQGLEWMGEITPSDNYTSYAQKFKGRVTITRDTSTSTAYMELSSLRSEDTAVYYCARGHGNYVSFDYWGQGTLVTVSS VL: DIQMTQSPSSLSASVGDRVTITCRASQDISNYLNWYQQKPGKAPKLLIYYTSRLHSGVPSRFSGSGSGTDFTLTISSLQPEDFATYFCQQGYSLPPYTFGQGTKLEIKR
Response: 8.64

Prompt: Any idea what its pKd is? The binder is h23-12-35 (antibody, human IgG1, kappa, V domains shown) VH: QVQLVQSGAEVKKPGASVKVSCKASGYTFTSYWMHWVRQAPGQGLEWMGEITPSDNYTSYNQKFKGRVTITRDTSTSTAYMELSSLRSEDTAVYYCARGQGNYVSFDYWGQGTLVTVSS VL: DIQMTQSPSSLSASVGDRVTITCRASQDISNYLNWYQQKPGKAPKLLIYYTSRLQSGVPSRFSGSGSGTDFTLTISSLQPEDFATYFCQQGYTLPPYTFGQGTKLEIKR
Response: 8.01

Prompt: Quick one: pKd for h23-12-30 (antibody, human IgG1, kappa, V domains shown) VH: QVQLVQSGAEVKKPGASVKVSCKASGYTFTSYWMHWVRQAPGQGLEWMGEITPGDNYTSYNQKFKGRVTITRDTSTSTAYMELSSLRSEDTAVYYCARGHGNYVSFDYWGQGTLVTVSS VL: DIQMTQSPSSLSASVGDRVTITCRASQDISNYLNWYQQKPGKAPKLLIYYTSRLQSGVPSRFSGSGSGTDFTLTISSLQPEDFATYFCQQGYTLPPYTFGQGTKLEIKR ?
Response: 8.01
